# Tested on: DU-4475
# TEST PROTOCOL: normalised viability (% of control), CellTiter-Blue; higher = more viable cells (about 100 = DMSO control)
# MEASUREMENT CONTEXT: incubation time: 72 h
Consider the following compounds and their measured normalised viability readings.

COMPOUND | TARGET OR SYSTEM | normalised viability, %
Cc1c(N)nc([C@H](CC(N)=O)NC[C@H](N)C(N)=O)nc1C(=O)N[C@H](C(=O)N[C@H](C)[C@@H](O)[C@H](C)C(=O)N[C@H](C(=O)NCCc1nc(-c2nc(C(=O)NCCC[S+](C)C)cs2)cs1)[C@@H](C)O)[C@@H](OC1OC(CO)C(O)C(O)C1OC1OC(CO)C(O)C(OC(N)=O)C1O)c1cnc[nH]1 (stereo partly specified) [Bleomycin] (300 nM) | DU-4475 | 107
Nc1nc(Cl)nc2c1ncn2[C@@H]1O[C@H](CO)[C@@H](O)[C@@H]1F [Clofarabine] (300 nM) | DU-4475 | 77
Cn1nnc2c(C(N)=O)ncn2c1=O [Temozolomide] (300 nM) | DU-4475 | 116
O=C(O)CC[C@H]1CC[C@@](c2cc(F)ccc2F)(S(=O)(=O)c2ccc(Cl)cc2)CC1 [MK-0752] (30 nM) | DU-4475 | 117
NC(=O)c1cccc2cn(-c3ccc([C@@H]4CCCNC4)cc3)nc12 [MK-4827] (300 nM) | DU-4475 | 73.6
Cc1c(C(=O)Nc2ccc(N3C[C@@H](C)O[C@@H](C)C3)nc2)cccc1-c1ccc(OC(F)(F)F)cc1 [NVP-LDE225] (300 nM) | DU-4475 | 101
